The reported measurements were obtained from the MegaScale stability set (Tsuboyama et al. 2023).

Reported folding stability dG by item:
B1: EEHEE_rd3_1049 (parent)
chain: TTVKLGDIKVTFDNPEKAKKYAQKLAKIYQLTVHVHGDTIHVK

variants of: B1; test: folding stability dG (cDNA display proteolysis); higher = more stable; conditions: PBS, room temperature

[
  {
    "variant.spec": "D7L",
    "folding stability dG, kcal/mol": 2.69
  },
  {
    "variant.spec": "A18T",
    "folding stability dG, kcal/mol": 0.288
  },
  {
    "variant.spec": "Y29D",
    "folding stability dG, kcal/mol": -0.065
  },
  {
    "variant.spec": "K17R",
    "folding stability dG, kcal/mol": 2.02
  },
  {
    "variant.spec": "T32S",
    "folding stability dG, kcal/mol": 1.94
  },
  {
    "variant.spec": "K43M",
    "folding stability dG, kcal/mol": 2.56
  },
  {
    "variant.spec": "V42P",
    "folding stability dG, kcal/mol": 0.257
  },
  {
    "variant.spec": "V33Y",
    "folding stability dG, kcal/mol": 1.54
  },
  {
    "variant.spec": "I8H",
    "folding stability dG, kcal/mol": 2.62
  },
  {
    "variant.spec": "F12D",
    "folding stability dG, kcal/mol": -0.148
  },
  {
    "variant.spec": "H41Y",
    "folding stability dG, kcal/mol": 2.6
  }
]
